The reader will find reported ND50 (MRC5) values listed item by item below.
# measured-target: T1, human TNFR1 on MRC-5 cells (human, UniProt P19438 30-455)
# T1 sequence (looked up): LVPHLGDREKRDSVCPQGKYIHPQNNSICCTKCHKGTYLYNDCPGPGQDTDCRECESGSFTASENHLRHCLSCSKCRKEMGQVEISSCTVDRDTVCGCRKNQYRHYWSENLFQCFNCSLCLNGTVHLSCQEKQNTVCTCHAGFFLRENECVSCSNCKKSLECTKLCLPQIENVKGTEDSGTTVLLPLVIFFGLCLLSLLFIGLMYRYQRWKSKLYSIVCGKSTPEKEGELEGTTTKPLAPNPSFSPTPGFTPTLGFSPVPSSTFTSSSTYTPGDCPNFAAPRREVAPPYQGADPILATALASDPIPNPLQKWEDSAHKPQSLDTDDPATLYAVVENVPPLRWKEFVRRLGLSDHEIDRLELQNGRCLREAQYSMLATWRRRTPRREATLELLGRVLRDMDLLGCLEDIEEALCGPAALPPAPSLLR
# test-summary: cell-based or functional assay
measured-quantity: ND50 (MRC5) (nM)

>>> measured_value("DMS0182 (bispecific antibody, in-line fusion of an anti-TNFR1 dAb and an anti-serum albumin dAb (AlbudAb)) EVQLLESGGGLVQPGGSLRLSCAASGFTFVKYSMGWVRQAPGKGPEWVSQISNTGDRTYYADSVKGRFTISRDNSKNTLYLQMNSLRAEDTAVYYCAIYTGRWEPFDYWGQGTLVTVSSASTDIQMTQSPSSLSASVGDRVTITCRASRPIGTTLSWYQQKPGKAPKLLIWFGSRLQSGVPSRFSGSGSGTDFTLTISSLQPEDFATYYCAQAGTHPTTFGQGTKVEIKRAAAEQKLISEEDLN")
6
>>> measured_value("DMS0186 (bispecific antibody, anti-TNFR1 dAb / AlbudAb in-line fusion) EVQLLESGGGLVQPGGSLRLSCAASGFTFVKYSMGWVRQAPGKGPEWVSQISNTGDRTYYADSVKGRFTISRDNSKNTLYLQMNSLRAEDTAVYYCAIYTGRWEPFDYWGQGTLVTVSSASTDIQMTQSPSSLSASVGDRVTITCRASRPIGTMLSWYQQKPGKAPKLLILFGSRLQSGVPSRFSGSGSGTDFTLTISSLQPEDFATYYCAQAGTHPTTFGQGTKVEIKRAAAEQKLISEEDLN")
20
>>> measured_value("DMS0168 (bispecific antibody, anti-TNFR1 dAb / AlbudAb in-line fusion) EVQLLESGGGLVQPGGSLRLSCAASGFTFVKYSMGWVRQAPGKGLEWVSQISNTADRTYYAHSVKGRFTISRDNSKNTLYLQMNSLRAEDTAVYYCAIYTGRWVPFEYWGQGTLVTVSSASTSGPSDIQMTQSPSSLSASVGDRVTITCRASQSIIKHLKWYQQKPGKAPKLLIYGASRLQSGVPSRFSGSGSGTDFTLTISSLQPEDFATYYCQQGARWPQTFGQGTKVEIKRAAAEQKLISEEDLN")
16
